- ASSAY_NOTES: Hydrolytic solution stability in pH 7.4 aqueous phosphate buffer at 37 degC by HPLC-UV method
- Assay type: physicochemical
READOUT_TYPE: half-life (h)

- NC(=O)[C@@H]1[C@@H]2C[C@@H]2[C@@H]2CN1C(=O)N2OS(=O)(=O)[O-].[Na+]: 112

----------
Reported half-life values for the following molecules.
- ASSAY_NOTES: Hydrolytic solution stability in pH 7.4 aqueous phosphate buffer at 70 degC by HPLC-UV method
- Format: physicochemical
READOUT_TYPE: half-life (h)

* NC(=O)[C@@H]1[C@@H]2C[C@@H]2[C@@H]2CN1C(=O)N2OS(=O)(=O)[O-].[Na+] | 8.2
* C[C@]1(Cn2ccnn2)[C@H](C(=O)O)N2C(=O)C[C@H]2S1(=O)=O [TAZOBACTAM] | 7.7
